- System: ENR+CD organoids
- Assay text: Primary screen: ATP (CellTiter-Glo 3D, CTG) cell number/viability, 2.5-D 384-well ENR+CD organoids;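 also: compounds given at plating and again on day 3 over a 6-day differentiation from ENR+CV stem-cell-enriched precursors, ATP measured on day 6, plate median as control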
- Measurement setup: primary screen, dose 0.08 uM
Counter-ions that a name gives are not always drawn.
Dose.FC.CTG strictly less than 0.3 log2 fold change = yes. Otherwise no.

A selection of reference data follows.
>  <Compound>
COc1ccnc2[nH]cc(C(=O)C(=O)N3CCN(C(=O)c4ccccc4)C[C@H]3C)c12

>  <Class label>
yes

$$$$
>  <Compound>
O=C(O[C@H]1C[C@H]2CC[C@@H](C1)[N+]21CCCC1)C(O)(c1ccccc1)c1ccccc1 [Trospium chloride]

>  <Class label>
yes

$$$$
>  <Compound>
CCN(CC)C(=O)c1ccc(C2=CC3(CCNCC3)Oc3cccc(O)c32)cc1 [ADL5859 HCl]

>  <Class label>
yes

$$$$
>  <Compound>
COc1cc2c(Nc3ccc(NC(=O)c4ccccc4)cc3)ncnc2cc1OCCCN1CCOCC1

>  <Class label>
no

$$$$
>  <Compound>
CC(C)n1c(/C=C/C(O)CC(O)CC(=O)O)c(-c2ccc(F)cc2)c2ccccc21 (stereo not shown) [Fluvastatin Sodium]

>  <Class label>
yes

$$$$

Asked: Here's an entry: Cc1ccc([C@@H]2O[C@H](CO)[C@@H](O)[C@H](O)[C@H]2O)cc1Cc1ccc(-c2ccc(F)cc2)s1 . Is its Dose.FC.CTG below 0.3 log2 fold change?
Given back: yes
